Data credit: patent US4327097A

# Lookup of reported MIC Proteus morganii keyed by entry
- Test system: Proteus morganii
- PROCEDURE_SUMMARY: MIC against clinical isolates
- Format: cell-based
- PARTICULARS: Table 6-5, clinical isolate; unit assumed
MEASURED_ATTRIBUTE: MIC Proteus morganii (µg/mL)

> print(dat)
                                   molecule  units  observed.measurement
1  CCCCCCCCN1CCN(C(=O)N[C@@H](C(=O)NC2C(=O)N3C(C(=O)O)=C(CSc4nnnn4C)CSC23)c2ccccc2)C(=O)C1=O (single isomer, unassigned)  µg/mL                  0.78
2  CCN1CCN(C(=O)NC(C(=O)NC2C(=O)N3C(C(=O)O)=C(CSc4nnnn4CC)CSC23)c2ccccc2)C(=O)C1=O (single isomer, unassigned)  µg/mL                  1.56
3  CCCCN1CCN(C(=O)NC(C(=O)NC2C(=O)N3C(C(=O)O)=C(CSc4nnnn4C)CSC23)c2ccccc2)C(=O)C1=O (single isomer, unassigned)  µg/mL                  0.78
4  CCN1CCN(C(=O)NC(C(=O)NC2C(=O)N3C(C(=O)O)=C(CSc4nncs4)CSC23)c2ccc(O)cc2)C(=O)C1=O (single isomer, unassigned)  µg/mL                  1.56
5  Cn1nnnc1SCC1=C(C(=O)O)N2C(=O)C(NC(=O)C(NC(=O)N3CCN(CCO)C(=O)C3=O)c3ccccc3)C2SC1 (single isomer, unassigned)  µg/mL                  1.56
6  CCN1CCN(C(=O)NC(C(=O)NC2C(=O)N3C(C(=O)O)=C(CSc4nnnn4CC)CSC23)c2ccc(O)cc2)C(=O)C1=O (single isomer, unassigned)  µg/mL                  1.56
7  CCN1CCN(C(=O)NC(C(=O)NC2C(=O)N3C(C(=O)O)=C(CSc4nnnn4C)CSC23)c2ccc(O)cc2)C(=O)C1=O (stereo not shown)  µg/mL                  0.78

* * *

# Lookup of reported MIC Staphylococcus aureus F-4 keyed by entry
- System: Staphylococcus aureus
- PROCEDURE_SUMMARY: MIC against clinical isolates
- Format: cell-based
- PARTICULARS: Table 5-1, clinical isolate; unit assumed

COMPOUND	MIC Staphylococcus aureus F-4, µg/mL
CC1(C)S[C@@H]2[C@H](NC(=O)C(c3ccccc3)S(=O)(=O)O)C(=O)N2[C@H]1C(=O)O (stereo partly drawn) [Sodium Sulbenicillin, reference compound]	6.25
CCCCCCN1CCN(C(=O)N[C@@H](C(=O)N[C@@H]2C(=O)N3[C@@H]2SC(C)(C)[C@@H]3C(=O)O)c2ccccc2)C(=O)C1	6.25
CC(=O)N1CCN(C(=O)N[C@@H](C(=O)N[C@@H]2C(=O)N3[C@@H]2SC(C)(C)[C@@H]3C(=O)O)c2ccccc2)C(=O)C1	6.25

* * *

- Tested on: Klebsiella pneumoniae
- PROCEDURE_SUMMARY: MIC against clinical isolates
- Assay type: cell-based
- PARTICULARS: Table 5-4, clinical isolate; unit assumed
MEASURED_ATTRIBUTE: MIC Klebsiella pneumoniae GN 917 (µg/mL)

> print(dat)
                                   molecule                    tgt  units  observed.measurement
1  CCN1CCN(C(=O)N[C@@H](C(=O)N[C@@H]2C(=O)N3[C@@H]2SC(C)(C)[C@@H]3C(=O)O)c2ccccc2)C(=O)C1=O  Klebsiella pneumoniae  µg/mL                  6.25
2  CCCCCCN1CCN(C(=O)N[C@@H](C(=O)N[C@@H]2C(=O)N3[C@@H]2SC(C)(C)[C@@H]3C(=O)O)c2ccccc2)C(=O)C1  Klebsiella pneumoniae  µg/mL                  12.5
3  CCCCN1CCN(C(=O)NC(C(=O)NC2C(=O)N3C2SC(C)(C)C3C(=O)O)c2ccccc2)C(=O)C1=O (single isomer, unassigned)  Klebsiella pneumoniae  µg/mL                  1.57
